Source of measurements: ChEMBL document CHEMBL3352485

Target: UniProt Q969F8
Sequence (Q969F8 whole entry): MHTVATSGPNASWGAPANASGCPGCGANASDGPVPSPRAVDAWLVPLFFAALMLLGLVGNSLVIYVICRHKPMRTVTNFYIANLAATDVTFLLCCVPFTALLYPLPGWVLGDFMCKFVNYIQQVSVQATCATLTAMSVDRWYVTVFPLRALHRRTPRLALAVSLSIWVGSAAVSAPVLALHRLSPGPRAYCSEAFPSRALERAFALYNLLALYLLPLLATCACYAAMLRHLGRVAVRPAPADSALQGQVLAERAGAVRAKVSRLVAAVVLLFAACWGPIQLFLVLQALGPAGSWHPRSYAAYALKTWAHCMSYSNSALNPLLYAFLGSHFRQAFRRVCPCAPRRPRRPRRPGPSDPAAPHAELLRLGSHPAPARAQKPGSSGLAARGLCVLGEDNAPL
Experiment: Displacement of radioligand from human KISS1R transfected in CHO cells
Where a SMILES comes first, the peptide text is derived from it. [ ]: non-standard residue; d: D form. Arg(Me) = CNC(=N)NCCC[C@H](N)C(=O)O; azaGly = NNC(=O)O
Measurement Kind: Ki (nM)
Report as a plain number; the unit nM is understood.

Item `CNC(=N)NCCC[C@H](NC(=O)[C@H](CC(C)C)NC(=O)NNC(=O)[C@H](Cc1ccccc1)NC(=O)[C@@H]1CCCN1C(=O)[C@H](CC(N)=O)NC(=O)[C@@H](Cc1ccncc1)NC(=O)[C@H](N)Cc1ccc(O)cc1)C(=O)N[C@@H](Cc1c[nH]c2ccccc12)C(N)=O` ; assay system UniProt Q969F8; Ki reported as 0.096

Ki on UniProt Q969F8 for `CNC(=N)NCCC[C@H](NC(=O)[C@H](CC(C)C)NC(=O)NNC(=O)[C@H](Cc1ccccc1)NC(=O)[C@@H](NC(=O)[C@H](CC(N)=O)NC(=O)[C@@H](Cc1c[nH]c2ccccc12)NC(=O)[C@@H](Cc1ccc(O)cc1)NC(=O)C1CC1)[C@@H](C)O)C(=O)N[C@@H](Cc1c[nH]c2ccccc12)C(N)=O` is 0.034

Summary line: `CNC(=N)NCCC[C@H](NC(=O)[C@H](CC(C)C)NC(=O)NNC(=O)[C@H](Cc1ccccc1)NC(=O)[C@@H](NC(=O)[C@H](CC(N)=O)NC(=O)[C@@H](Cc1c[nH]c2ccccc12)NC(=O)[C@@H](Cc1ccc(O)cc1)NC(C)=O)[C@@H](C)O)C(=O)N[C@@H](Cc1ccccc1)C(N)=O` , UniProt Q969F8, reported Ki = 0.038

Here `CNC(=N)NCCC[C@H](NC(=O)[C@H](CC(C)C)NC(=O)NNC(=O)[C@H](Cc1ccccc1)NC(=O)[C@H](CO)NC(=O)[C@H](CC(N)=O)NC(=O)[C@@H](Cc1c[nH]c2ccccc12)NC(=O)[C@H](N)Cc1ccc(O)cc1)C(=O)N[C@@H](Cc1c[nH]c2ccccc12)C(N)=O` was tested on UniProt Q969F8, and its Ki came to 0.037

So the reported Ki for `CC[C@H](NC(=O)[C@@H](Cc1c[nH]c2ccccc12)NC(=O)[C@H](N)Cc1ccc(O)cc1)C(=O)N[C@@H](CO)C(=O)N[C@@H](Cc1ccccc1)C(=O)NNC(=O)N[C@@H](CC(C)C)C(=O)N[C@@H](CCCNC(=N)NC)C(=O)N[C@@H](Cc1c[nH]c2ccccc12)C(N)=O` , on UniProt Q969F8, turned out to be 0.12

The molecule CNC(=N)NCCC[C@H](NC(=O)[C@H](CC(C)C)NC(=O)NNC(=O)[C@H](Cc1ccccc1)NC(=O)[C@@H](NC(=O)[C@H](CC(N)=O)NC(=O)[C@@H](Cc1c[nH]c2ccccc12)NC(=O)[C@@H](Cc1ccc(O)cc1)NC(C)=O)[C@@H](C)O)C(=O)N[C@@H](Cc1c[nH]c2ccccc12)C(N)=O (Ac-[dY][dW]NTF[azaGly]L[Arg(Me)]W-NH2) on UniProt Q969F8: Ki was 0.036

// returns Ki for `CNC(=N)NCCC[C@H](NC(=O)[C@H](CC(C)C)NC(=O)NNC(=O)[C@H](Cc1ccccc1)NC(=O)[C@@H](NC(=O)[C@H](CC(N)=O)NC(=O)[C@@H](Cc1c[nH]c2ccccc12)NC(=O)[C@H](N)Cc1ccc(O)cc1)C(C)C)C(=O)N[C@@H](Cc1c[nH]c2ccccc12)C(N)=O` with UniProt Q969F8; value = 0.028

Ki of `CNC(=N)NCCC[C@H](NC(=O)[C@H](CC(C)C)NC(=O)NNC(=O)[C@H](Cc1ccccc1)NC(=O)[C@@H](NC(=O)[C@H](CC(N)=O)NC(=O)[C@@H](Cc1ccncc1)NC(=O)[C@@H](Cc1ccc(O)cc1)NC(C)=O)[C@@H](C)O)C(=O)N[C@@H](Cc1c[nH]c2ccccc12)C(N)=O` , assay on UniProt Q969F8, is 0.089

The reported Ki value, UniProt Q969F8, for `CNC(=N)NCCC[C@H](NC(=O)[C@H](CC(C)C)NC(=O)NNC(=O)[C@H](Cc1ccccc1)NC(=O)[C@H](CO)NC(=O)[C@H](C)NC(=O)[C@@H](Cc1ccncc1)NC(=O)[C@H](N)Cc1ccc(O)cc1)C(=O)N[C@@H](Cc1c[nH]c2ccccc12)C(N)=O` reads 0.2

Summary: `CC(C)C[C@H](NC(=O)CNC(=O)[C@H](Cc1ccccc1)NC(=O)[C@H](CO)NC(=O)[C@H](CC(N)=O)NC(=O)[C@H](Cc1c[nH]c2ccccc12)NC(=O)[C@H](CC(N)=O)NC(=O)[C@@H](N)Cc1ccc(O)cc1)C(=O)N[C@@H](CCCNC(=N)N)C(=O)N[C@@H](Cc1ccccc1)C(N)=O` , UniProt Q969F8, Ki = 0.035
